Record form. Attribute: composite z-score. Fill in for each entry.
Target: Calmodulin-1 (Homo sapiens) (UniProt P0DP23)
Assay: calcium-bound CALM1 binders on microarrays, profiling panel, artefact control for SMM control-protein annotation, biochemical, small-molecule microarray, Cy5-labelled CALM1, plus calcium (AID 1112);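 note: score merges spot fluorescence with signal to noise from triplicate slides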
Settings: Cy5-CALM1 binding fluorescence, higher = more signal
Give bare numbers.

Below are worked cases with known answers.
>  <COMPOUND>
COC(=O)[C@@]1(Cc2ccc(OC)cc2)[C@H]2c3cc(C(=O)N4CCCC4)n(Cc4cc(F)cc5c4OCOC5)c3C[C@H]2CN1C(=O)c1ccccc1

>  <composite z-score>
0.365

$$$$
>  <COMPOUND>
CCOC(=O)[C@H]1C/C=C/C[C@H](C(=O)OCC)C(=O)O[C@H]2[C@@H](OC)O[C@H](CO)[C@@H](OC(=O)Nc3ccc4c(c3)OCO4)[C@@H]2OC1=O

>  <composite z-score>
0.152

$$$$
>  <COMPOUND>
C=CC(=C)C1=CCO[C@@H]1[C@H]1CCCN1S(=O)(=O)c1ccccc1[N+](=O)[O-]

>  <composite z-score>
-0.112

$$$$

# batch size: 5; output composite z-score per entry
1. O=C1C2C=CC(C(O)c3ccc(B(O)O)cc3)N(Nc3ccccc3)C2C(=O)N1c1ccccc1 (configuration not stated)
2. N[C@@H](Cc1ccccc1)Cn1cc(-c2ccccc2)nn1
3. COc1ccc([Si](C)(C)[C@@H]2[C@@H](CCn3cc([C@H](O)c4ccccc4)nn3)O[C@]3(C(=O)N(Cc4ccc(N5C(=O)c6cccc7cccc5c67)cc4)c4ccccc43)[C@H]2C)cc1
4. CCCCCN1CC=CC23O[C@@H]4/C=C\CCCOC(=O)C4[C@H]2C(=O)N(CCCCCCO)[C@@H]3C1=O (some centres not stated)
5. COc1ccc(CCNC(=O)[C@@H]2c3ccccc3C(=O)N(Cc3ccc(OC(F)(F)F)cc3)[C@H]2c2ccc(CO)cc2)cc1

0.665
-0.574
0.702
-0.0227
-0.12

# batch size: 4; output composite z-score per entry
1. C[C@]1(C(=O)NCc2ccccc2)c2ccccc2C(=O)N(Cc2ccc(OC(F)(F)F)cc2)[C@H]1c1ccc(CO)cc1
2. COc1ccc(CCN2C(=O)[C@@]3(Cc4ccccc42)c2ccccc2C(=O)N(Cc2ccccc2Cl)[C@H]3c2ccc(CO)cc2)cc1
3. COCCOC(=O)N1C(=O)[C@@]2(c3cc(C#CCC(C(=O)OC)C(=O)OC)ccc31)[C@H](C(=O)N1CCCCCCC1)[C@H]1C(=O)O[C@H](c3ccccc3)[C@H](c3ccccc3)N1[C@@H]2c1ccc(OCCO)cc1
4. CC(C)C(=C=CC[C@@H](O)c1ccccc1OCCO)C[C@@H](O)c1ccccn1

1. 0.122
2. 0.45
3. 1.67
4. -0.34
